- METHOD SUMMARY: Plasma escitalopram levels in Phase 1 study
- Type: in vivo, human
- EXPERIMENTAL SETUP: both sexes, human, plasma, oral, 20 mg/day, Cohort 2 (5-HTP 3 mg/kg, Constant); 20 mg/day oral; mean ± SEM
TEST READOUT: concentration at 21 day (ng/mL)

structure_as_smiles=CN(C)CCC[C@@]1(c2ccc(F)cc2)OCc2cc(C#N)ccc21 unit_info=ng/mL measured_value=22.5

###

- METHOD SUMMARY: Plasma escitalopram levels in Phase 1 study
- Type: in vivo, human
- EXPERIMENTAL SETUP: both sexes, human, plasma, oral, Cohort 3 (5-HTP 3 mg/kg, Ramped); 20 mg/day oral; mean ± SEM
TEST READOUT: concentration at 22 day

compound="CN(C)CCC[C@@]1(c2ccc(F)cc2)OCc2cc(C#N)ccc21 [Escitalopram, escitalopram]" test_readout="concentration at 22 day" measured_value="37.3 ng/mL"

###

- METHOD SUMMARY: Plasma 5-HTP pharmacokinetics of 24 h continuous IV 5-HTP infusion, Phase 1 study
- Type: in vivo, human
- EXPERIMENTAL SETUP: both sexes, human, plasma, iv, 1 mg/kg, Cohort 1, constant rate 1 mg/kg/24 hr IV; healthy adults on escitalopram; mean, N=6
TEST READOUT: AUC(0-t) (ng·h/mL)

compound="N[C@@H](Cc1c[nH]c2ccc(O)cc12)C(=O)O [5-HTP, 5-hydroxytryptophan]" measured_value=2910

###

- METHOD SUMMARY: Plasma escitalopram levels in Phase 1 study
- Assay type: in vivo, human
- EXPERIMENTAL SETUP: both sexes, human, plasma, oral, 20 mg/day, Cohort 5 (5-HTP 1 mg/kg, Ramped); 20 mg/day oral; mean ± SEM
- Protocol: Study Design. […] Pre-treatment with escitalopram. […] On Day 7 subjects were evaluated for general health and tolerability of escitalopram. Escitalopram compliance confirmation was evaluated by taking a blood draw for escitalopram plasma level measurements and by monitoring pill count using a diary. […] Bioanalysis. […] Plasma 5-HTP levels and plasma escitalopram levels were measured using standard liquid chromatography with tandem mass spectrometry (LC-MS-MS) methods. […]
TEST READOUT: concentration at 21 day

compound="CN(C)CCC[C@@]1(c2ccc(F)cc2)OCc2cc(C#N)ccc21 [Escitalopram, escitalopram]" measured_value="21.7 ng/mL"

###

- METHOD SUMMARY: Plasma escitalopram levels in Phase 1 study
- Assay type: in vivo, human
- EXPERIMENTAL SETUP: both sexes, human, plasma, po, 20 mg/day, Cohorts 1-5 pooled, placebo infusion instead of 5-HTP, N=10; 20 mg/day oral; mean ± SEM
TEST READOUT: concentration at 23 day (ng/mL)

structure_as_smiles=CN(C)CCC[C@@]1(c2ccc(F)cc2)OCc2cc(C#N)ccc21 measured_value=43.5

###

- METHOD SUMMARY: Plasma escitalopram levels in Phase 1 study
- Format: in vivo, human
- EXPERIMENTAL SETUP: both sexes, human, plasma, oral, 20 mg/day, Cohort 4 (5-HTP 2 mg/kg, Ramped); 20 mg/day oral; mean ± SEM
- Protocol: Study Design. […] Pre-treatment with escitalopram. […] On Day 7 subjects were evaluated for general health and tolerability of escitalopram. Escitalopram compliance confirmation was evaluated by taking a blood draw for escitalopram plasma level measurements and by monitoring pill count using a diary. […] Bioanalysis. […] Plasma 5-HTP levels and plasma escitalopram levels were measured using standard liquid chromatography with tandem mass spectrometry (LC-MS-MS) methods. […]
TEST READOUT: concentration at 23 day (ng/mL)

structure_as_smiles=CN(C)CCC[C@@]1(c2ccc(F)cc2)OCc2cc(C#N)ccc21 unit_info=ng/mL measured_value=30.3
